# System: HTT mRNA
# PROTOCOL_DESCRIPTION: Splicing RT-qPCR assay (THP), Table 2A
# Format: cell-based
# CONDITION_INFO: Table 2A (THP), CJ mRNA decrease, read-out: HTT CJ (decrease in canonical junction mRNA, IC50)
compounds and their reported IC50

>>> experimental_result("CCNC1CCN(c2ccc(C(=O)Nc3cc(-n4ccccc4=O)c4nc(C)cn4c3)c3nn(C)cc23)CC1")
"> 10 µM"
>>> experimental_result("COc1cc2nn(C)cc2cc1NC(=O)c1ccc(N2CCNC(C)C2)c2cn(C)nc12 (stereo not shown)")
"0.1 to 1 µM"
>>> experimental_result("Cc1cn2cc(NC(=O)c3c(F)cc(N4CCC(NC5CC5)CC4)c4cn(C)nc34)nc2c(C)n1")
"> 10 µM"
>>> experimental_result("CNC1CCC(Oc2ccc(C(=O)Nc3cn4cc(C)nc(C)c4n3)c3nn(C)cc23)CC1 (stereo not shown)")
"1 to 10 µM"
>>> experimental_result("CCNC1CCN(c2ccc(C(=O)Nc3cc(Oc4cccc(Cl)c4)c4nc(C)cn4c3)c3nn(C)cc23)CC1")
"1 to 10 µM"
>>> experimental_result("CN[C@@H]1C[C@@H](C)N(c2ccc(C(=O)Nc3cc(F)c4nc(C)cn4c3)c3nn(C)cc23)C1")
"1 to 10 µM"

Please turn your attention to the following entry.
Quick note, IC50 for CCNC1CCN(c2ccc(C(=O)Nc3cc(OCc4ccccc4)c4nc(C)cn4c3)c3nn(C)cc23)CC1 landed at > 10 µM

====

# System: MYB mRNA
# PROTOCOL_DESCRIPTION: Gene panel canonical junction qPCR assay, decrease in CJ mRNA, Table 3
# Type: cell-based
# CONDITION_INFO: decrease in canonical junction (CJ) mRNA, gene panel qPCR, Table 3
Structures can show the parent of a compound that is named as a salt.
READOUT_TYPE: IC50

// below: answered molecules
>>> experimental_result("CCNC1CCN(c2cc(F)c(C(=O)Nc3cn4cc(CF)nc(C)c4n3)c3nn(C)cc23)CC1 [Compound 383, trifluoroacetate]")
"< 100 nM"
>>> experimental_result("COc1cc2nn(C)cc2cc1NC(=O)c1ccc(N2CC3(CCNCC3)C2)c2cn(C)nc12")
"1000 to 10000 nM"
>>> experimental_result("Cc1nc(C)c2nc(NC(=O)c3ccc(N4CCC(NC5CC5)CC4)c4cn(C)nc34)cn2c1C")
"100 to 1000 nM"

Please turn your attention to the following entry.
Quick note, IC50 for COc1cc2nn(C)cc2cc1NC(=O)c1c(C)cc(N2CCC(NC3CC3)CC2)c2cn(C)nc12 landed at > 10000 nM

====

# Test system: MYB mRNA
# PROTOCOL_DESCRIPTION: Gene panel canonical junction qPCR assay, decrease in CJ mRNA, Table 3
# Type: cell-based
# CONDITION_INFO: decrease in canonical junction (CJ) mRNA, gene panel qPCR, Table 3
# Experimental: Compounds described herein were used to modulate RNA transcript abundance in cells. The expression of a target mRNA was measured by detecting the formation of an exon-exon junction in the canonical transcript (CJ). A compound mediated exon-inclusion event was detected by observing an increase in formation of a new junction with an alternative exon (AJ). Real-time qPCR assays were used to detect these splicing switches and interrogate the potency of various compounds towards different target genes. […]
READOUT_TYPE: IC50

// below: answered compounds
>>> experimental_result("Cc1cn2cc(NC(=O)c3ccc(N4CC5CNCC5C4)c4cn(C)nc34)nc2c(C)n1 (centres unmarked) [Compound 526]")
"1000 to 10000 nM"
>>> experimental_result("Cc1cc2cc(NC(=O)c3ccc(N4CCC(NC5CC5)CC4)c4cn(C)nc34)oc2c(C)n1 [Compound 451, 2,2,2-trifluoroacetate]")
"1000 to 10000 nM"
>>> experimental_result("CCNC1CCN(c2cc(F)c(C(=O)Nc3nc4c(C)nc(C)cc4o3)c3nn(C)cc23)CC1 [Compound 380]")
"1000 to 10000 nM"

Record CCOc1cc2nc(C)cn2cc1NC(=O)c1c(F)cc(N2CCC(NC3CC3)CC2)c2cn(C)nc12 [Compound 406] ; system MYB mRNA; IC50 = 100 to 1000 nM

Record COc1cc2nn(C)cc2cc1NC(=O)c1ccc(N2CCC(N3CCNCC3)C2)c2cn(C)nc12 (centres unmarked) [Compound 539] ; system MYB mRNA; IC50 = > 10000 nM

====

# System: HTT mRNA
# PROTOCOL_DESCRIPTION: Splicing RT-qPCR assay (THP), Table 2A
# Type: cell-based
# CONDITION_INFO: Table 2A (THP), CJ mRNA decrease, read-out: HTT CJ (decrease in canonical junction mRNA, IC50)
pIC50: −log10 of the molar value. Counter-ions that a name gives are not always drawn.
READOUT_TYPE: pIC50

// below: answered molecules
>>> experimental_result("Cc1cn2cc(NC(=O)c3ccc(N4CC(N5CCNCC5)C4)c4cn(C)nc34)nc2c(C)n1")
"< 5.00"
>>> experimental_result("COc1cc2nn(C)cc2cc1NC(=O)c1ccc(N2CCC(NC3CC3)CC2)c2cc(CO)nn12 [Compound 443, trifluoroacetate]")
"6.00 to 7.00"

Quick note, pIC50 for COc1cc2nn(C)cc2cc1NC(=O)c1cnc(N2CCC(NC3CC3)CC2)c2cn(C)nc12 landed at 6.00 to 7.00

Quick note, pIC50 for Cc1cn2cc(NC(=O)c3ccc(N4C[C@@H](C)N[C@@H](C)C4)c4[nH]cnc34)cc(F)c2n1 landed at < 5.00

====

# System: HTT mRNA
# PROTOCOL_DESCRIPTION: Splicing RT-qPCR assay, canonical (CJ) and alternative (AJ) junction mRNA, K562 cells
# Format: cell-based
# CONDITION_INFO: Homo sapiens, K562.3 cells, 24 hours, read-out: HTT AJ (AC50, increase in AJ mRNA)
READOUT_TYPE: AC50

// below: answered compounds
>>> experimental_result("CCNC1CCN(c2ccc(C(=O)Nc3cc4cn(C)nc4cc3OC)c3[nH]ccc23)CC1 [Compound 178]")
"> 10 µM"
>>> experimental_result("CO[C@H]1C[C@@H](N[C@H]2CCN(c3ccc(C(=O)Nc4cc(F)c5nc(C)cn5c4)c4nn(C)cc34)C2)C1 [Compound 277]")
"< 0.1 µM"
>>> experimental_result("CNC1(C)CCN(c2ccc(C(=O)Nc3cn4cc(C)nc4c(OC)n3)c3nn(C)cc23)CC1 [Compound 197]")
"< 0.1 µM"
>>> experimental_result("Cc1cn2cc(NC(=O)c3ccc(N4CC[C@H](NCC(C)(C)O)C4)c4cn(C)nc34)cc(F)c2n1 [Compound 132]")
"> 10 µM"
>>> experimental_result("Cn1cc2cc(NC(=O)c3c(O)cc(N4CC[C@@H](NC5CC5)C4)c4cn(C)nc34)cc(F)c2n1 [Compound 291]")
"1 to 10 µM"
>>> experimental_result("Cc1cn2cc(NC(=O)c3ccc(N4CCC(NC5CC5)CC4)c4cc(C)oc34)cc(F)c2n1 [Compound 185]")
"1 to 10 µM"

Quick note, AC50 for COc1c(NC(=O)c2c(F)cc(N3CCC(NC4CC4)CC3)c3cn(C)nc23)cn2cc(C)nc2c1F [Compound 207] landed at < 0.1 µM

Quick note, AC50 for COCCN[C@@H]1CCN(c2ccc(C(=O)Nc3cc(F)c4nc(C)cn4c3)c3nn(C)cc23)C1 [Compound 113] landed at > 10 µM

Quick note, AC50 for CCNC1CCN(c2ccc(C(=O)Nc3cc(F)c4nc(CF)cn4c3)c3nn(C)cc23)CC1 [Compound 202] landed at 1 to 10 µM

Quick note, AC50 for CNC1(C)CCN(c2cc(F)c(C(=O)Nc3cc(F)c4nc(C)cn4c3)c3nn(C)cc23)CC1 [Compound 179] landed at < 0.1 µM

Quick note, AC50 for Cc1cn2cc(NC(=O)c3ccc(C4CNCCO4)c4[nH]cnc34)cc(F)c2n1 (stereo not drawn) [Compound 194] landed at 1 to 10 µM

Quick note, AC50 for CCNC1CCN(c2ccc(C(=O)Nc3cc(F)c4nc(C)c(C)n4c3)c3nn(C)cc23)CC1 [Compound 188] landed at > 10 µM

====

compounds and their reported pIC50
# Test system: HTT mRNA
# PROTOCOL_DESCRIPTION: Gene panel canonical junction qPCR assay, decrease in CJ mRNA, Table 3
# Assay type: cell-based
# CONDITION_INFO: decrease in CJ mRNA levels, canonical junction qPCR, gene panel
pIC50: −log10 of the molar value.

// below: answered compounds
>>> experimental_result("COc1nc2c(C(=O)Nc3ccc4nn(C)cc4n3)ccc(N3C[C@H](C)N[C@@H](C)C3)c2s1")
"6.00 to 7.00"
>>> experimental_result("COc1nc2c(C(=O)Nc3cc(CNS(C)(=O)=O)c4nc(C)cn4c3)ccc(N3CCC(NC4CC4)CC3)c2s1")
"5.00 to 6.00"
>>> experimental_result("COc1nc2c(C(=O)Nc3cc(C)c4nc(C)cn4n3)ccc(N3C[C@H](C)N[C@@H](C)C3)c2s1")
"5.00 to 6.00"

Please turn your attention to the following entry.
Quick note, pIC50 for COc1nc2c(C(=O)Nc3cc(F)c4nn(C)cc4c3)ccc(N3CC4CCC(C3)N4)c2s1 landed at 5.00 to 6.00

Cited source: patent US20260285853A1
